meta.source: PubChem BioAssay (NCI)

Test system: SF-295 CNS
test_name: NCI tumour cell line growth inhibition, 48 h
outcome_measure: GI50

Below: 5 molecules and their reported GI50.
COc1ccc(-c2nc3sccn3c2/C(N)=N/C(=N)N)cc1OC ... 30.5 µM
COC(=O)[C@@H]1[C@H](O)[C@H](C)[C@H](O)[C@@](C)(O)/C=C\C=C(C)C(=O)Nc2c(C)c(OC(C)=O)c3c(c2O)C(=O)C(C)=C2OCOC(=C23)C(C)=C[C@@](C)(O)[C@H](O)[C@@H](C)[C@H]1OC(C)=O ... > 66.9 µM
O=C(Nc1ccccc1)NS(=O)(=O)c1ccc(-n2nc3c(c2-c2cccs2)Cc2ccccc2-3)cc1 ... 21.9 µM
O=C1C(Cl)=C(Nc2cccc(Cl)c2)C(=O)N1Cc1ccc(Cl)cc1Cl ... 4.22 µM
Cc1ccc(NC2=C(Cl)C(=O)N(Cc3ccccc3)C2=O)cc1O ... 22 µM

For every listed record, write down its GI50.
1. O=C(/C=C/C12c3ccccc3C(c3ccccc31)C1C(=O)NC(=O)C12)c1ccncc1 (configuration not stated)
2. CC/C=C\CCC/C=C1/C(=O)C=C[C@@H]1C/C=C\CCCC(=O)OC

Out:
["2.59 µM", "3.1 µM"]
